The molecules listed here are annotated with their inhibition at 10 µM.
target: human serotonin transporter (Homo sapiens, UniProt P31645); construct: expressed in transfected cells; experiment: Inhibitory action on human serotonin transporter ([3H]-5-hydroxytryptamine uptake in CHO cells); type: cell-based; details: CHO, compound 10 μM; relative to inhibitory activity of 10 μM Paroxetine as 100%; CHO cells expressing human serotonin transporter; read-out: inhibitory rate (%)
Sequence (P31645 whole entry): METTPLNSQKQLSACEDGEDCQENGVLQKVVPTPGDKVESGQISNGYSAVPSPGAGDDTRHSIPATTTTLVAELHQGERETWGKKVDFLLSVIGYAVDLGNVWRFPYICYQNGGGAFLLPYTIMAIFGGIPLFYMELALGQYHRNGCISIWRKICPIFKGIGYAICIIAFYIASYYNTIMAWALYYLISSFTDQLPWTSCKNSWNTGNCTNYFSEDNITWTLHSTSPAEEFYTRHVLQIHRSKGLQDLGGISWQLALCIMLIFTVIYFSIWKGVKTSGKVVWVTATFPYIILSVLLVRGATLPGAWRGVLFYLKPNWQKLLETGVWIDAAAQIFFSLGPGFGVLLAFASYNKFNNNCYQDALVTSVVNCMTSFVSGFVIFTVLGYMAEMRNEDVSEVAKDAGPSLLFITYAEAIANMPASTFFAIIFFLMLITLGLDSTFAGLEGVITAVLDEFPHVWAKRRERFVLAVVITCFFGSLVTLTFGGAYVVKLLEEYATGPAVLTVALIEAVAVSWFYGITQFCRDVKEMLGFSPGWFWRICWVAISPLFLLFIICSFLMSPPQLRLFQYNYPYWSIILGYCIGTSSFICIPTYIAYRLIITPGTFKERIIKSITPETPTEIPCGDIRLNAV
Counter-ions that a name gives are not always drawn.
Field: numeric (%). Do not append units.

Below are worked cases with known answers.
CS(=O)(=O)C[C@H]1CNCCOC1c1ccc(F)c(Cl)c1 (mixture of isomers) [Example 12, monohydrochloride]; 97
OC[C@H]1OCCNC[C@H]1c1ccc(Cl)c(Cl)c1 (racemic) [Example 25, monohydrochloride]; 65
CS(=O)(=O)NCC1(c2ccc(Cl)c(Cl)c2)CNCCCO1 (racemic) [Example 24, monohydrochloride]; 99
NS(=O)(=O)NCC1(c2ccc(Cl)c(Cl)c2)CCNCCO1 (racemic) [Example 22, monohydrochloride]; 98
COC1(c2ccc(Cl)c(Cl)c2)CNCCOC1 (racemic) [Example 17, monohydrochloride]; 96

As a next step, examine the molecule that follows.
Please give measured inhibition at 10 µM of the following entry: CC(=O)NC[C@H]1CNCCO[C@@H]1c1ccc(Cl)c(Cl)c1 (racemic) [Example 6, monohydrochloride] 98

###

target: human norepinephrine transporter (Homo sapiens); construct: expressed in transfected cells; test: Inhibitory action on human norepinephrine transporter ([3H]-norepinephrine uptake in CHO cells); format: cell-based; conditions: compound 1 μM; relative to inhibitory activity of 10 μM DMI as 100%
Sequence (P23975 whole entry): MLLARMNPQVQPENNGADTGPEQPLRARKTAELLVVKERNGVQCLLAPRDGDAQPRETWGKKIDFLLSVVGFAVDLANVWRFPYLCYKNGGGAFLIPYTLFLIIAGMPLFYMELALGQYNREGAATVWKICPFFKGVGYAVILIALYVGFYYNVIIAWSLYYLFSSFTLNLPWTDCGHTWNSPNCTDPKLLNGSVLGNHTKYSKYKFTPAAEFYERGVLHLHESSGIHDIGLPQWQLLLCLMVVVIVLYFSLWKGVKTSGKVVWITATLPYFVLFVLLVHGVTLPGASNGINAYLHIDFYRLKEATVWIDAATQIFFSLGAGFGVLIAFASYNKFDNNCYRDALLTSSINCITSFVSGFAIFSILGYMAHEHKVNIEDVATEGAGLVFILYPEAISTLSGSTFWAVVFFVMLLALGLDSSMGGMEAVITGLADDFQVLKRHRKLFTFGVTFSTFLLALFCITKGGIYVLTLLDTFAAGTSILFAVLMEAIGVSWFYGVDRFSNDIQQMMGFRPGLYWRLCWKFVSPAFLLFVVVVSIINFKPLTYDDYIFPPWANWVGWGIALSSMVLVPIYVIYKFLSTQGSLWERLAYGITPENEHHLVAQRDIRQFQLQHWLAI
Counter-ions that a name gives are not always drawn.
Measured quantity: inhibitory rate (%)
Field: numeric (%). Do not append units.

Below are worked cases with known answers.
OCC1CNCCOC1c1ccc(Cl)c(F)c1 (centres unmarked); 103
Cc1cc(C2OCCNCC2CO)ccc1Cl (centres unmarked); 98
Cc1ccc(C2OCCNCC2CO)cc1Cl (centres unmarked); 98

Please give measured inhibitory rate (%) of the following entry: OC[C@H]1NCCOC[C@@H]1c1ccc(Cl)c(Cl)c1 (racemic) [Example 14, monohydrochloride] 98

Please give measured inhibitory rate (%) of the following entry: OCC1CNCCOC1c1ccc(Cl)c(Cl)c1 (centres unmarked) 98

###

molecular target: human serotonin transporter (Homo sapiens, UniProt P31645); construct: expressed in transfected cells; test: Inhibitory action on human serotonin transporter ([3H]-5-hydroxytryptamine uptake in CHO cells); assay type: cell-based; settings: CHO, compound 1 μM; relative to inhibitory activity of 10 μM Paroxetine as 100%; read-out: inhibitory rate (%)
Where a name gives a salt, the structure may show the parent alone.
Measured quantity: inhibition at 1 µM
Hi, when you answer, please include the unit after the number. Thanks!

Below are worked cases with known answers.
O=C(CO)NC[C@@H]1OCCNC[C@H]1c1ccc(Cl)c(Cl)c1 [Example 507, monohydrochloride]; 46%
CS(=O)(=O)NC[C@@H]1CNCCO[C@H]1c1ccc(Cl)c(Cl)c1 [Example 34, monohydrochloride]; 84%
OC[C@@H](O)[C@H]1OCCNC[C@H]1c1ccc(Cl)c(Cl)c1; 61%
NC(=O)N[C@@H]1CNCCO[C@H]1c1ccc(Cl)c(Cl)c1 [Example 262, monohydrochloride]; 71%

Please give measured inhibition at 1 µM of the following entry: CS(=O)(=O)CC(=O)NC[C@@H]1CNCCO[C@H]1c1ccc(Cl)c(Cl)c1 [Example 114, monohydrochloride] 94%

Please give measured inhibition at 1 µM of the following entry: O=c1[nH]nc(-c2cccn(C[C@@H]3CNCCO[C@H]3c3ccc(Cl)c(F)c3)c2=O)o1 [Example 550, monohydrochloride] 97%

Please give measured inhibition at 1 µM of the following entry: OC[C@H]1CNCCO[C@@H]1c1ccc(F)c(Cl)c1 79%

Please give measured inhibition at 1 µM of the following entry: OCC(O)(CO)[C@@H]1OCCNC[C@H]1c1ccc(Cl)c(Cl)c1 [Example 491, monohydrochloride] 77%

Please give measured inhibition at 1 µM of the following entry: CC(=O)N(C)C[C@@H]1CNCCO[C@H]1c1ccc(Cl)c(Cl)c1 [Example 99, monohydrochloride] 99%

Please give measured inhibition at 1 µM of the following entry: [2H]C([2H])([2H])OCC(=O)NC[C@@H]1CNCCO[C@H]1c1ccc(Cl)c(F)c1 [Example 39, monohydrochloride] 58%
